target: T1, recombinant purified FRα (ECL assay calibrator) (human, UniProt P15328 25-234); assay: ECL sandwich, FRα calibrator; capture 2F11.F8; binder = detection Ab
T1 construct: Calibrator of the ECL sandwich assays; also called FRα calibrator; FRα standard
T1 sequence (P15328 25-234 limits assumed): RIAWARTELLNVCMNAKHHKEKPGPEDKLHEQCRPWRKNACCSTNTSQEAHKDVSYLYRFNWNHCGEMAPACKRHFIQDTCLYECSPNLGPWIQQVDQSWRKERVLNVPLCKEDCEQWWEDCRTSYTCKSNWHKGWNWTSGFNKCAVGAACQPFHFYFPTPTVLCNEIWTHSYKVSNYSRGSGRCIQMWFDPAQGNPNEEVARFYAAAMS
Reported Specific signal at 500 pg/mL values for a set of binders

{"Binder": "Monoclonal antibody 26A9.C4 (antibody, mouse IgG1, V domains shown, Murine IgG1 kappa from hybridoma; also called ATCC PTA-123092) VH: SGARELVKPGASVKLSCKTSGFTFSSSFISWLKQKPGQSLEWIAWIYGGNGGTSYNQNFTGKAQLTVDTSSSTAYMQFSSLTTEDSAVYYCASETYGNYWYFDVWGAGTTVTVSS VL: QSPASLSASVGDTVTITCRASGNIHNYLAWYQQKQGKSPQLLVYNAKTLADGVPSRFSGSGSGTQYSLKINSLQPEDFGNYYCQHFWSTPYTFGGGTKLEIK", "Specific signal at 500 pg/mL": 61}
{"Binder": "Monoclonal antibody 1D2.D8.G10 (antibody, mouse IgG1, V domains shown, Murine IgG1 kappa from hybridoma; also called 1D2.D8.G0; ATCC PTA-123098) VH: QSGTVLARPGASVKMSCKASGYSFTSNWMHWIKQRPGQGLEWIGAIYPGNSDTSYNQKFKGKAKLTAVTSASTAYMELSSLTNEDSAVYHCTRGDGSSFWYFDVWGAGTTVTVSS VL: QSPASLVVSLGQRATISCRASKSVSTSGYSYMYWYQQKSGQPPKLLIYLASNLESGVPARFSGGGSGTDFTLNIHPVEEEDAATYYCQQSRELPPTFGGGTKLEIK", "Specific signal at 500 pg/mL": 62}
{"Binder": "Monoclonal antibody 19D4.B7 (antibody, mouse IgG2a, V domains shown, SULFO-TAG conjugated when used as detection antibody in the ECL assay; also called ATCC PTA-11884) VH: GARELVKPGASVKLSCTASGFNIKHPYMHWVKQRPDQGLEWIGRIDPANGNTKYDPKFQGKATITADTSSNTAYLQLSSLTSEDTAVYYCGREEVADYTMDYWGQGTSVTVSS VL: PASLAVSLGQRATISCRASESVDTYGNNFIHWYQQKPGQPPKLLIYLASNLESGVPARFSGSGSRTDFTLTIDPVEADDAATYYCQQNNGDPWTFGGGTKLEIKR", "Specific signal at 500 pg/mL": 1260}
{"Binder": "Monoclonal antibody 1C6.E12.G8 (antibody, mouse IgG1, V domains shown, Murine IgG1 kappa from hybridoma; also called ATCC PTA-123091) VH: SGARELVKPGASVKLSCKTSGFTFNSSYITWLKQKPGQSLEWIAWIYAGNGGTTYNQKFTGKAQLTVDTSSSTAYMQFSSLTTEDSAIYYCASETYTNYWYFDVWGSGTTVTVSS VL: QSPASLSASVGETVTITCRASGNIHNYLAWYQQKQGKSPQLLVYNAKTLADGVPSRFSGSGSGTQYSLKINSLQPEDFGSYYCQHFWSTPYTFGGGTKLEIK", "Specific signal at 500 pg/mL": 67}
{"Binder": "Monoclonal antibody 1A8.G11.E7 (antibody, mouse IgG1, V domains shown, Murine IgG1 kappa from hybridoma; also called ATCC PTA-123100) VH: ESGPGLVAPSQSLSITCTVSGFSLTSYGVSWVRQPPGKGLEWLGVIWGDGSTNYHSTLISRLSISKDNSKSQVFLKLNSLQTDDTATYYCAKPHPAATGAMDYWGQGTSVTVSS VL: TQTTSSLSASLGDRVTISCRASQDISNHLNWYQQKPDGTVKLLIYYTSRLHSGVPSRFSGSGSGTDYSLTISNLEQEDIATYFCQQGNTLWTFGGGTKLEIK", "Specific signal at 500 pg/mL": 60}
